These measurements were taken from PubChem BioAssay AID624404.

Tested on: D54 LucT luciferase reporter counterscreen, luminescence, 24 h
Test: reporter signal increase, D54 LucT cells – cell-based, luminescence, cherry pick, counter-screen for N-linked glycosylation inhibitor project, dose response (AID 624404)
Records with an inconclusive call do not appear.
outcome-measure: AC35

CC(C)(C)S(=O)(=O)N1C[C@H]2CC/C=C\C/C(c3ccccc3)=C\2[C@@H]1CCO :: 536 nM
COc1ccc2c(c1)C(=O)N1[C@H]3c4cc(Cl)ccc4OC[C@@H]3[C@H](c3ccccc3)[C@]1(C)C(=O)N2 :: 981 nM
COCCNC(=O)c1cc(-c2cccs2)on1 :: 1020 nM
CCOc1ncccc1C(=O)Nc1cc2c(cc1Br)OCCO2 :: 169 nM

Attention now shifts to the item below.
"COc1ccc(C(=O)N2CCN(S(=O)(=O)c3ccc(C)cc3C)CC2)cc1S(=O)(=O)N1CCOCC1" yielded AC35 of 4790 nM

----------
The entries below come with measured AC35 values attached.
Tested on: D54 LucT luciferase reporter counterscreen, luminescence, 24 h
Assay: reporter signal increase, D54 LucT cells – cell-based, luminescence, cherry pick, counter-screen for N-linked glycosylation inhibitor project, dose response (AID 624404)
Inconclusive results are not listed.

Recorded results for 8 compounds are shown here.
C(=C\c1nccc2c1[nH]c1ccccc12)/c1ccccc1 :: 0.00701 µM
CC(C)CCNC(=O)CCCOc1cc(=O)n(C)c2ccccc12 :: 2.26 µM
COc1ccccc1/C=C/C(=O)/C=C/c1ccccc1O :: 0.266 µM
COc1cc(-c2nccc3cc4c(cc23)OCO4)cc(OC)c1OC :: 0.0617 µM
CSCCOC(=O)c1[nH]c2c(c1C)C(=O)CC(c1ccco1)C2 (stereo not drawn) :: 0.627 µM
COc1ccc([C@@H]2[C@@H]3C(=O)N(C(C)(C)C)C(=O)[C@@H]3[C@]3(Cc4ccccc4)C(=O)N(c4cccc(Br)c4)C(=O)N23)cc1 :: 0.762 µM
CC(C)C1N=C(c2ccc3c(c2)OCO3)CC(c2ccccc2O)N1 (stereo not drawn) :: 3.51 µM
COC(=O)c1ccc(C(=O)NC2CC(C)(C)Cc3c2cnn3-c2ccc(F)cc2)nc1 (stereo not drawn) :: 3.95 µM

Measured AC35 of "COc1ccc2oc(-c3ccccc3[N+](=O)[O-])cc(=O)c2c1" : 0.174 µM

Documented AC35 of "OCCCNc1c2ccccc2nc2ccccc12" : 4.9 µM

The compound listed as "OCCCCCN=c1cc(-c2ccccc2)oc2ccc(Cl)cc12" shows AC35 equal to 2.19 µM

Entry "C=CCn1c(O)c(/C=C2/C=CC=N2)c(=O)[nH]c1=O" ; AC35 = 14.3 µM

Measured AC35 of "COc1cc(C(=O)NCC(=O)NCCN2C(=O)S/C(=C\c3ccccc3Cl)C2=O)cc(OC)c1OC" : 1.15 µM

"CCN(c1ccccc1)S(=O)(=O)c1ccc(N)c(OC)c1" has a reported AC35 of 1.82 µM

In plain terms, "O=C(NCCN1C(=O)S/C(=C\c2ccc(Cl)cc2Cl)C1=O)C1=COCCO1" has a documented AC35 of 3.41 µM

Record "Cc1cc(C)n(-c2nnc3n2N=C(c2c[nH]c4ccccc24)CS3)n1" . Reported AC35: 0.0285 µM

The compound listed as "Cc1ccc(-c2nc(NCCN(C)C)c3ccccc3n2)cc1" has a reported AC35 of 4.45 µM

"COc1ccc(/C(C)=N/NC(=O)c2ccccc2OCc2ccccc2)c(OC)c1" has a reported AC35 of 0.056 µM

The recorded AC35 for entry COc1cc(NC(C(=O)Nc2cccc(C(C)=O)c2)c2ccccc2)cc(OC)c1OC (stereo not drawn) equals 0.00556 µM

Record summary for "O=C(/C=C/c1ccccc1)c1ccccc1" : reported AC35 = 1.2 µM

Record "COc1ccc(/C=C/C(=O)Oc2cccc(/C=N/NC(=O)COc3c(C)cccc3C)c2)cc1" . Reported AC35: 3.25 µM

Value of measured AC35 for the entry "COC(=O)c1c(C)[nH]c(C(=O)/C=C/c2cccc(Cl)c2)c1C" : 0.839 µM

The reported value for "Cc1ccc(-c2cc(C(=O)N/N=C/c3c[nH]c4ccccc34)[nH]n2)cc1" in terms of AC35 is 0.101 µM

----------
Test system: D54 LucT luciferase reporter counterscreen, luminescence, 24 h
Assay: reporter signal increase, D54 LucT cells – cell-based, luminescence, cherry pick, counter-screen for N-linked glycosylation inhibitor project, dose response (AID 624404)
Inconclusive results are not listed.
outcome-measure: AC35

CCCCC[C@H](O)/C=C/[C@@H]1[C@@H](C/C=C\CCCC(=O)OC)[C@@H](O)C[C@H]1O :: < 0.0012 µM
Cn1nc(-c2ccccc2)c(CSc2ccccc2Cl)c1Cl :: 1.12 µM
COc1ccc2c(c1)[C@H]1[C@H](CO2)[C@H](c2ccccc2)[C@]2(C)C(=O)Nc3ccc(F)cc3C(=O)N12 :: 0.582 µM
Nc1c2ccccc2nc2ccccc12 :: 4.9 µM
NC(=O)CC(NC(=O)Cc1ccc(Br)cc1)c1ccc(NC2CCN(Cc3ccccc3)CC2)c([N+](=O)[O-])c1 (stereo not given) :: 0.983 µM

Please turn your attention to the following entry.
AC35 of "O=C(NC1CCCCC1)c1ccc([N+](=O)[O-])o1" , assay on D54 LucT luciferase reporter counterscreen, luminescence, 24 h, is 1.37 µM

----------
System: D54 LucT luciferase reporter counterscreen, luminescence, 24 h
Assay: reporter signal increase, D54 LucT cells – cell-based, luminescence, cherry pick, counter-screen for N-linked glycosylation inhibitor project, dose response (AID 624404)
Inconclusive results are not listed.
outcome-measure: AC35

Examples with answers:
COc1cccc(C(NC(C)=O)c2nc(-c3ccccc3C)cs2)c1 (configuration not stated) :: 678 nM
CC(=O)NC(=C(Cl)Cl)S(=O)(=O)c1ccccc1 :: 3670 nM
CCC(C)C(=O)OC1CCC=C2C=CC(C)C(CCC3CC(O)CC(=O)O3)C21 (configuration not stated) :: 499 nM
O=C(/C=C/Sc1ccccc1)c1ccc(Cl)cc1 :: 370 nM
CC(=O)Nc1ccc(NC(=O)c2ccc(-c3c(C)noc3C)c3ccoc23)cc1 :: 5690 nM

Lab book: AC35 of "C/C(=N\NC(=O)c1c(Cl)c(C)nn1C)c1ccc(NC(=O)C2CCC2)cc1" noted as 475 nM

Measured AC35 of "Cc1ccc(C(=O)N/C(=C\c2cccs2)C(=O)NCCc2c[nH]c3ccccc23)cc1" : 1090 nM

Sure, the documented AC35 for "c1ccc(N=Nc2ccc3cccccc2-3)cc1" is 355 nM

Entry "N#Cc1c(-c2ccc(F)cc2)c(-c2ccc(F)cc2)nn(CCO)c1=O" — recorded AC35 = 997 nM

// sample Cc1ccnc(NC(=O)CN2C(=O)NC(C)(c3ccc4ccccc4c3)C2=O)c1 (configuration not stated) , its AC35 was 362 nM

The reported AC35 of the compound "COc1cc(N=Nc2cccc(S(N)(=O)=O)c2)c2ccccc2c1N" was 1660 nM

For "COc1ccccc1N1CCN(c2ccc3c(c2)S(=O)(=O)c2cccc(C(=O)NCC4CC4)c2C3=O)CC1" the compound record lists AC35 as 1190 nM

Notebook: "CCOc1cc(-c2c(C#N)c(N)nc3c2CCc2ccccc2-3)ccc1O" , AC35 read as 3850 nM

----------
System: D54 LucT luciferase reporter counterscreen, luminescence, 24 h
Assay: reporter signal increase, D54 LucT cells – cell-based, luminescence, cherry pick, counter-screen for N-linked glycosylation inhibitor project, dose response (AID 624404)
Results filed as inconclusive are left out.
outcome-measure: AC35

COCCNC(=S)N1CCc2cc(OC)c(OC)cc2C1c1cccs1 (stereo unspecified) :: 352 nM
CN1C(=O)CSc2ccc(NC(=O)Nc3ccccn3)cc21 :: 828 nM
Cc1ccc(N2CCN(C3=NC(=O)/C(=C\c4cn[nH]c4-c4ccccc4)S3)CC2)cc1 :: 793 nM
CCOc1ccc(N2CCc3c(C)nc(SC)nc32)cc1 :: 3060 nM
CC(=O)C1=C(O)C(=O)N(c2ccc(Br)cn2)C1c1ccc(Br)cc1 (stereo unspecified) :: 55.2 nM
Cn1c(=O)c2cc(NC(=O)CCc3ccccc3)ccc2n1-c1ccccc1F :: 2980 nM
C[C@@]12C(=O)Nc3cc(Cl)ccc3C(=O)N1[C@H]1c3cc(Cl)ccc3OC[C@@H]1[C@@H]2c1ccccc1 :: 1440 nM
NC(=O)CC(NC(=O)Cc1ccc(Br)cc1)c1ccc(NC2CCCC2)c([N+](=O)[O-])c1 (stereo unspecified) :: 2870 nM

For this compound ( "c1ccc2c(c1)C1=NCCN1c1ccccc1-2" ), measured AC35 is 6250 nM

Entry under test: "O=C(CCN1C(=O)/C(=C\c2ccccc2)SC1=S)N1CCCCC1" . Its AC35 was 6190 nM

The recorded AC35 for "Cn1c(=O)n(C)c2cc(NC(=O)CCl)ccc21" is 707 nM
